Target: SpsB F158A mutant (Staphylococcus aureus, UniProt P0A070, F158A)
Construct: recombinantly expressed full-length S. aureus SpsB (wt) or mutants
Sequence (P0A070 1-191 F158A): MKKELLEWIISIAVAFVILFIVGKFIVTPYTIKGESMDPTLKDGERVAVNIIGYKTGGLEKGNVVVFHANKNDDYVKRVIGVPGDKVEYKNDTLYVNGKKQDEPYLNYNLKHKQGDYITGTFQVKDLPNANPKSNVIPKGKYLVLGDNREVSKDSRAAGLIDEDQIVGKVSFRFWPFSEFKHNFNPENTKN
Experiment: FRET-based signal peptidase assay with membrane-bound SpsB, F158A mutant
Details: F158A mutant
Measurement Kind: IC50 (nM)
Supply the numeric figure in nM, leaving out any unit text.

Query: IC50; subject: CCC(C)CCCCCCCCC(=O)N(C)[C@H](CO)C(=O)N[C@H](C)C(=O)NCC(=O)N(C)C1C(=O)N[C@@H](C)C(=O)NC(C(=O)O)Cc2ccc(O)c(c2)-c2cc1ccc2O (stereo partly shown)
229
